Sourced from patent US8835467B2

Assay target: Mouse SIR2 enzyme (SIR2α) (Mus musculus)
Construct: purchased Upstate Group
Sequence (Q923E4 1-737): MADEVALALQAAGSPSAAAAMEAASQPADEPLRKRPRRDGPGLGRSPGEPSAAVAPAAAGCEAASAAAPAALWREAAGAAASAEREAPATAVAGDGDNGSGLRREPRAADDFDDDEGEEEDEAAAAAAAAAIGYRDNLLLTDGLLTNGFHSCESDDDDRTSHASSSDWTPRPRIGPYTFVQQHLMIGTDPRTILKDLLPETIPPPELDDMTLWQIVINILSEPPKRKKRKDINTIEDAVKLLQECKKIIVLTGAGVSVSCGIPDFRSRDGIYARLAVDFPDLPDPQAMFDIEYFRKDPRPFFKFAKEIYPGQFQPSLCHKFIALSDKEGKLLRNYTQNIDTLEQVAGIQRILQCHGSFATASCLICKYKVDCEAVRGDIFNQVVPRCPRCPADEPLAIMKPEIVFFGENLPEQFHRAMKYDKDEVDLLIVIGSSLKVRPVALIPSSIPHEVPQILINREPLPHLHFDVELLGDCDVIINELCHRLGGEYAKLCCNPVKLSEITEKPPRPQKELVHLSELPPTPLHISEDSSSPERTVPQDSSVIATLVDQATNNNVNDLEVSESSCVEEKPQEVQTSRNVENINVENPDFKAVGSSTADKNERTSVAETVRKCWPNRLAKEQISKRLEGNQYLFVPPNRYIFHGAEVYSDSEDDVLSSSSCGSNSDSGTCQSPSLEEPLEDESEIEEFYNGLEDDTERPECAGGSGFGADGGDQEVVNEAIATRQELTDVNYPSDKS
Method: SIR2 nicotinamide base-exchange assay (p53 peptide, HPLC/14C)
Format: biochemical
pKi: −log10 of the molar value.
Experimental readout: pKi

Answer with reported pKi of NC(=O)c1cccnc1 [nicotinamide]
< 2.10

---

Hi there, I'd appreciate the recorded inhibition at 5000 µM for every entry that follows.
Assay target: Bacterial SIR2Af2 (Archaeoglobus fulgidus, UniProt O30124)
Construct: made in house
Sequence (O30124 1-253): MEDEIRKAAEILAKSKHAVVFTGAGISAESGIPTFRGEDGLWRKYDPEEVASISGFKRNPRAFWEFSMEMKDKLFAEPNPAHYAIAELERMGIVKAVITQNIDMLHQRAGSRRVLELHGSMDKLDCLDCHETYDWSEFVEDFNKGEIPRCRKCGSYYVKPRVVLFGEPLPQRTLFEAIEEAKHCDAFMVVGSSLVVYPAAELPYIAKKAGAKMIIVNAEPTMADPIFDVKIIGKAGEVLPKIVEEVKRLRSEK
Method: SIR2 deacetylation assay (p53 peptide, HPLC of ADPR and 3′-O-acetyl-ADPR)
Format: biochemical, Archeaglobus fulgidus
Dear colleague, please return just the value in %, with no unit written.

Consider the molecule NC(=O)c1cnccn1 [Pyrazinamide] . State its measured inhibition at 5000 µM.
4

Respond only with inhibition at 5000 µM recorded for NC(=S)c1cccnc1 [Thionicotinamide]
4

Determine its reported inhibition at 5000 µM: NC(=O)c1ccccc1 [Benzamide]
5

Output measured inhibition at 5000 µM for this item: NC(=O)c1ccncc1 [Isonicotinamide]
4

---

Assay target: Bacterial SIR2Af2 (Archaeoglobus fulgidus, UniProt O30124)
Construct: made in house
Method: SIR2 nicotinamide base-exchange assay (p53 peptide, HPLC/14C)
Format: biochemical, Archeaglobus fulgidus
Protocol: After 2 hours, aliquots of 10 μL removed at 0, 30, 60, 90 and 120 min. Each aliquot was combined with 50 μL 50 mM ammonium acetate pH 5.0 to quench and assayed by HPLC for deacetylation products and NAD^+. The chromatograms (260 nm) were obtained using 50 mM ammonium acetate pH 5.0 as eluant on a semi-preparative Waters C-18 column (2.0 mL/min flow rate). Peaks for ADPR and 3′-O-Acetyl-ADPR were quantified by integration. The peak for NAD^+ was collected and radiation counted. […]
Experimental readout: Ki

Please give the documented Ki of NC(=O)c1cccnc1 [nicotinamide]
> 8 mM

---

Experimental readout: pKi
The quantity pKi is defined as the negative base-10 logarithm of the molar concentration.

Give pKi; test system Af2Sir2 (archaean) (Archaeoglobus fulgidus, UniProt O30124); compound NC(=O)c1cccnc1F
1.37

---

Assay target: Yeast Sir2 (Saccharomyces cerevisiae)
Sequence (P06700 whole entry): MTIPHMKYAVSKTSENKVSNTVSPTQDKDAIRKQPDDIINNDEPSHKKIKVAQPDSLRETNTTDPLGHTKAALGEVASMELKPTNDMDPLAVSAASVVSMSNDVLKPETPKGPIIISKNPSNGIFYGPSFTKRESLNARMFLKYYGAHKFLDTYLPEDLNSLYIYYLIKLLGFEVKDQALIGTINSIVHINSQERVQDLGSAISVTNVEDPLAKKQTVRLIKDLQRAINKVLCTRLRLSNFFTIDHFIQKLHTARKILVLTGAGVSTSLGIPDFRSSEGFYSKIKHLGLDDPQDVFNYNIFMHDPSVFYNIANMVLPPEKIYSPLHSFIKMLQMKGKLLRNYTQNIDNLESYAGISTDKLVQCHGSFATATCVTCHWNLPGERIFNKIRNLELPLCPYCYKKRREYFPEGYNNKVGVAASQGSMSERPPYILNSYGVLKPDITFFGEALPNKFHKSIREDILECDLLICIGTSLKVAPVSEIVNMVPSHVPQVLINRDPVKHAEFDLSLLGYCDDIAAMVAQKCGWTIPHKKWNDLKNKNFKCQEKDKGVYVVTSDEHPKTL
Method: Sir2 catalyzed deacetylation of H4 N-terminal peptide
Format: biochemical
Run parameters: Ki, apparent nicotinamide inhibition constant (deacetylation), 60 mM isonicotinamide
Experimental readout: pKi
# pKi is unitless: minus log10 of the molar concentration; print number only

Read the entry NC(=O)c1cccnc1 [nicotinamide] and write its reported pKi.
3.74

---

Assay target: Yeast Sir2 (Saccharomyces cerevisiae)
Method: Sir2 catalyzed deacetylation of H4 N-terminal peptide
Type: biochemical
Run parameters: Ki, apparent nicotinamide inhibition constant (deacetylation), 0 mM isonicotinamide
Experimental readout: Ki (µM)
API: value field is a number in µM; no unit string.

Kindly indicate its recorded Ki. Item: NC(=O)c1cccnc1 [nicotinamide]
100

---

Assay target: Yeast Sir2 (Saccharomyces cerevisiae)
Method: Sir2 catalyzed base exchange with H4 N-terminal peptide
Type: biochemical
Run parameters: read-out: Ki for isonicotinamide
Experimental readout: Ki (mM)
Please reply with the bare figure in mM and do not write the unit itself.

Please tell me the measured Ki for NC(=O)c1ccncc1 [Isonicotinamide] ; system: Yeast Sir2 (Saccharomyces cerevisiae).
60

---

Assay target: UniProtKB P06700
Experimental readout: Ki (mM)
Just the number please, in mM, no unit attached.

Entry NC(=O)c1cccnc1F needs its Ki filled in; supply it.
20
